The measurements presented in this section are drawn from patent US9309242B2.

Listing of recorded BAF3-FGFR1 (MIN IL3) pIC50 by entry.
Target: Ba/F3-FGFR1-transfected cells (Homo sapiens, UniProt P11362)
Construct: BAF3-FGFR1 (MIN IL3) pIC50; other: minus IL3
Sequence (P11362 whole entry, change not shown): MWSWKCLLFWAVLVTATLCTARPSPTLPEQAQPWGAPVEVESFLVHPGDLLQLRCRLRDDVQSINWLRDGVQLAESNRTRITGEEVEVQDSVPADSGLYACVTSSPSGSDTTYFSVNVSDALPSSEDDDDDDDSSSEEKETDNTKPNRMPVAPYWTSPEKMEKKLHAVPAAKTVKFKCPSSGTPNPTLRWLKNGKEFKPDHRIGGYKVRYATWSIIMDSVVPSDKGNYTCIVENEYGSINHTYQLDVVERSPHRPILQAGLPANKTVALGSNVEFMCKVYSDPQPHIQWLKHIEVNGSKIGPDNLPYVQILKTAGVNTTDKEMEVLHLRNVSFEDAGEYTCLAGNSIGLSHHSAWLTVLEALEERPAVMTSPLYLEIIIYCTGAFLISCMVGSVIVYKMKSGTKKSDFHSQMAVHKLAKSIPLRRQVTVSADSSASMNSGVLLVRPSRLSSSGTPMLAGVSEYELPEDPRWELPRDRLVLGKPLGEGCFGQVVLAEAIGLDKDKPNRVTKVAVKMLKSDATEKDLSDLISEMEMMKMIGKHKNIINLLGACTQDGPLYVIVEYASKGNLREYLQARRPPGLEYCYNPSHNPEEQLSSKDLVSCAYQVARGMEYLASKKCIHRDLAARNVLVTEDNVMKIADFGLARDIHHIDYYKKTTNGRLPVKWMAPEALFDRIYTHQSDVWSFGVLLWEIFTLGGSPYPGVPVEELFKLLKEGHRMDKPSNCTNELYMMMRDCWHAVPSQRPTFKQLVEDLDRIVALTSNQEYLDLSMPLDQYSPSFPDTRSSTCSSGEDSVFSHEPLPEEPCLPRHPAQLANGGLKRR
Test: Ba/F3-FGFR1 (minus IL3) cellular proliferation assay, Alamar Blue
Type: cell-based
Lab note: jot the number down without any unit.

Solved entries:
COc1cc(OC)c(F)c(N(CCS(C)(=O)=O)c2ccc3ncc(-c4cnn(CCS(C)(=O)=O)c4)nc3n2)c1 | 6.29
COc1cc(/N=c2\ccc3ncc(-c4cnn(C)c4)nc3n2CC2CCC(=O)N2C)c(F)c(OC)c1 (stereo not shown) [Compound 158] | 7.18
COc1cc(OC)cc(N(CC2CC(O)C(=O)N2)c2ccc3ncc(-c4cnn(C)c4)nc3n2)c1 (stereo not shown) | 6.02

Moving on to another compound below.
Query: Supply measured BAF3-FGFR1 (MIN IL3) pIC50 of COc1cc(/N=c2\ccc3ncc(-c4cnn(C)c4)nc3n2CCCN2CCCC2=O)cc(OC)c1 in your reply.
Reply: 7.30
